- System Under Test: human P2X7 receptor (Homo sapiens)
- Construct: expressed in transfected cells
- Sequence (Q99572 whole entry): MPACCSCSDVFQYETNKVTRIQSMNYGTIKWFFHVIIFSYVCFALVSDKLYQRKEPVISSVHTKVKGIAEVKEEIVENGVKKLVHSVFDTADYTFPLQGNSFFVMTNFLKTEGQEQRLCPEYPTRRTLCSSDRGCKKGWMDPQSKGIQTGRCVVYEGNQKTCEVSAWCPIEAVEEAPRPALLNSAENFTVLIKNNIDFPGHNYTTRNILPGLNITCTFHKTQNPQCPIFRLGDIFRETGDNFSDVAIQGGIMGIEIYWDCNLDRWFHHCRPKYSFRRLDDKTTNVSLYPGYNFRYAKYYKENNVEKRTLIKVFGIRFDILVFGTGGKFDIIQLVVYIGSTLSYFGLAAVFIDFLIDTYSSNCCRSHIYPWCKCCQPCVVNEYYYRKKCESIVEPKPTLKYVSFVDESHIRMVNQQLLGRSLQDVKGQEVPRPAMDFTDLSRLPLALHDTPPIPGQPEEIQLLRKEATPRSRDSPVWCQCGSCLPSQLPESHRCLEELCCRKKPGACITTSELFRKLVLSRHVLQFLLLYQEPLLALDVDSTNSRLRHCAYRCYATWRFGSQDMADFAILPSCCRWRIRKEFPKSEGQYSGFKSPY
- Method Description: Ethidium Accumulation Assay
- Assay type: cell-based
- Stated Conditions: HEK293 cells stably expressing human recombinant P2X7 receptors; 1 mM ATP; values given as 'about'; read-out: pIC50 for human P2X7 receptor antagonist activity (blocking ATP responses) in the Ethidium Accumulation Assay (converted)
Reported IC50 by item:
Quantity Name: IC50

{"Compound": "Cc1cc(F)c(Br)cc1N1CCN(C(=O)c2cccc(C(F)(F)F)c2Cl)CC1=O [Example 45]", "Reported Measurement": "2.51 to 100 nM"}
{"Compound": "COc1ccc(I)cc1N1CCN(C(=O)c2cccc(C(F)(F)F)c2Cl)CC1=O [Example 64]", "Reported Measurement": "2.51 to 100 nM"}
{"Compound": "CC(C)c1ccccc1N1CCN(C(=O)c2ccc(F)cc2Cl)CC1=O [Example 26]", "Reported Measurement": "2.51 to 100 nM"}
{"Compound": "Cc1cc(F)ccc1N1CCN(C(=O)c2cccc(Cl)c2Cl)CC1=O [Example 28]", "Reported Measurement": "2.51 to 100 nM"}
{"Compound": "O=C(c1cccc(C(F)(F)F)c1Cl)N1CCN(c2ccc(F)cc2)C(=O)C1 [Example 12]", "Reported Measurement": "5.01 to 200 nM"}
{"Compound": "O=C(c1cccc(Cl)c1Cl)N1CCN(c2cccc(Cl)c2)C(=O)C1 [Example 14]", "Reported Measurement": "5.01 to 200 nM"}
{"Compound": "CN1CCN(C(=O)c2cccc(Cl)c2Cl)CC1=O [Example 16]", "Reported Measurement": "5.01 to 200 nM"}
{"Compound": "O=C(c1c(Cl)cccc1Cl)N1CCN(c2ccc(F)cc2Cl)C(=O)C1 [Example 31]", "Reported Measurement": "2.51 to 100 nM"}
{"Compound": "CN1CCN(C(=O)c2cccc(C(F)(F)F)c2Cl)CC1=O [Example 35]", "Reported Measurement": "2.51 to 100 nM"}
